Tested on: NCI-H460
Experiment: relative viability (nuclei count vs DMSO), 5 days (fraction); higher = more cells survive
Settings: first compound 0.253 µM
Threshold 0.6: relative viability strictly smaller gives label 1, otherwise label 0.

Use the examples below as a reference point.
1) COc1nc(C)cnc1NS(=O)(=O)c1cccnc1-c1ccc(-c2nnco2)cc1 [Zibotentan] + CC(=O)c1c(C)c2cnc(Nc3ccc(N4CCNCC4)cn3)nc2n(C2CCCC2)c1=O [Palbociclib] (partner 0.5 µM)    label 1
2) COc1nc(C)cnc1NS(=O)(=O)c1cccnc1-c1ccc(-c2nnco2)cc1 [Zibotentan] + NC(=O)Nc1cc(-c2cccc(F)c2)sc1C(=O)N[C@H]1CCCNC1 [AZD7762] (partner 0.2 µM)    label 1
3) O=c1cc(-c2cccc3c2Sc2ccccc2S3)oc(N2CCOCC2)c1 + O=C(CCCCCCC(=O)Nc1ccccc1)NO [Vorinostat] (partner 1 µM)    label 0
4) O=c1cc(-c2cccc3c2Sc2ccccc2S3)oc(N2CCOCC2)c1 + Cc1nc(Nc2ncc(C(=O)Nc3c(C)cccc3Cl)s2)cc(N2CCN(CCO)CC2)n1 [Dasatinib] (partner 0.075 µM)    label 0
5) O=c1cc(-c2cccc3c2Sc2ccccc2S3)oc(N2CCOCC2)c1 + Cc1cc(Nc2cc(N3CCN(C)CC3)nc(Sc3ccc(NC(=O)C4CC4)cc3)n2)n[nH]1 [Tozasertib] (partner 0.1 µM)    label 1

Task: API: query returns whether the compound falls strictly under 0.6 in relative viability. Query: COc1nc(C)cnc1NS(=O)(=O)c1cccnc1-c1ccc(-c2nnco2)cc1 [Zibotentan] + CS(=O)(=O)N1CCN(Cc2cc3nc(-c4cccc5[nH]ncc45)nc(N4CCOCC4)c3s2)CC1 [Pictilisib] (partner 1 µM)
Output: label 1

Task: API: query returns whether the compound falls strictly under 0.6 in relative viability. Query: O=c1cc(-c2cccc3c2Sc2ccccc2S3)oc(N2CCOCC2)c1 + Cc1nc(NC(=O)N2CCC[C@H]2C(N)=O)sc1-c1ccnc(C(C)(C)C(F)(F)F)c1 [Alpelisib] (partner 2 µM)
Output: label 0

Task: API: query returns whether the compound falls strictly under 0.6 in relative viability. Query: COc1nc(C)cnc1NS(=O)(=O)c1cccnc1-c1ccc(-c2nnco2)cc1 [Zibotentan] + Nc1ncn([C@H]2C[C@H](O)[C@@H](CO)O2)c(=O)n1 [Decitabine] (partner 2 µM)
Output: label 1

----------
System: HOP-62
Assay: relative viability (nuclei count vs DMSO), 5 days (fraction); higher = more cells survive
Settings: first compound 0.3162 µM
measured-property: relative viability

# example entries with known answers
1) CCN(CC)CCCCNc1ncc2cc(-c3cc(OC)cc(OC)c3)c(NC(=O)NC(C)(C)C)nc2n1 + CCNC(=O)c1noc(-c2cc(C(C)C)c(O)cc2O)c1-c1ccc(CN2CCOCC2)cc1 [Luminespib] (partner 0.01 µM)    0.961
2) O=c1cc(N2CCOCC2)oc2c(-c3cccc4c3sc3ccccc34)cccc12 + Nc1nc2[nH]cc(CCc3ccc(C(=O)N[C@@H](CCC(=O)O)C(=O)O)cc3)c2c(=O)[nH]1 [Pemetrexed] (partner 0.2 µM)    0.39
3) CCN(CC)CCCCNc1ncc2cc(-c3cc(OC)cc(OC)c3)c(NC(=O)NC(C)(C)C)nc2n1 + C[C@]1(O)C[C@@H](c2nc(-c3ccc4ccc(-c5ccccc5)nc4c3)c3c(N)nccn32)C1 [Linsitinib] (partner 1 µM)    1.14
4) CCN(CC)CCCCNc1ncc2cc(-c3cc(OC)cc(OC)c3)c(NC(=O)NC(C)(C)C)nc2n1 + CS(=O)(=O)N1CCN(Cc2cc3nc(-c4cccc5[nH]ncc45)nc(N4CCOCC4)c3s2)CC1 [Pictilisib] (partner 1 µM)    0.747
5) O=c1cc(N2CCOCC2)oc2c(-c3cccc4c3sc3ccccc34)cccc12 + CC(C)C[C@H](NC(=O)[C@H](Cc1ccccc1)NC(=O)c1cnccn1)B(O)O [Bortezomib] (partner 0.002 µM)    0.81
6) CCN(CC)CCCCNc1ncc2cc(-c3cc(OC)cc(OC)c3)c(NC(=O)NC(C)(C)C)nc2n1 + NC(=O)Nc1cc(-c2cccc(F)c2)sc1C(=O)N[C@H]1CCCNC1 [AZD7762] (partner 0.2 µM)    0.684
7) CCN(CC)CCCCNc1ncc2cc(-c3cc(OC)cc(OC)c3)c(NC(=O)NC(C)(C)C)nc2n1 + COc1cc2c(Oc3ccc(NC(=O)C4(C(=O)Nc5ccc(F)cc5)CC4)cc3F)ccnc2cc1OCCCN1CCOCC1 [Foretinib] (partner 0.25 µM)    1.16
8) O=c1cc(N2CCOCC2)oc2c(-c3cccc4c3sc3ccccc34)cccc12 + NC(=O)Nc1cc(-c2cccc(F)c2)sc1C(=O)N[C@H]1CCCNC1 [AZD7762] (partner 0.2 µM)    0.745

# evaluate next
Task: Value lookup for relative viability; key = O=c1cc(N2CCOCC2)oc2c(-c3cccc4c3sc3ccccc34)cccc12 + CC1(C)CCC(c2ccc(Cl)cc2)=C(CN2CCN(c3ccc(C(=O)NS(=O)(=O)c4ccc(N[C@H](CCN5CCOCC5)CSc5ccccc5)c(S(=O)(=O)C(F)(F)F)c4)cc3)CC2)C1 [Navitoclax] (partner 0.5 µM)
Output: 0.854
